target: human HSL (Homo sapiens, UniProt Q05469)
Construct: generate a full length human HSL ORF with a 3′-His6 tag
Sequence (Q05469 whole entry): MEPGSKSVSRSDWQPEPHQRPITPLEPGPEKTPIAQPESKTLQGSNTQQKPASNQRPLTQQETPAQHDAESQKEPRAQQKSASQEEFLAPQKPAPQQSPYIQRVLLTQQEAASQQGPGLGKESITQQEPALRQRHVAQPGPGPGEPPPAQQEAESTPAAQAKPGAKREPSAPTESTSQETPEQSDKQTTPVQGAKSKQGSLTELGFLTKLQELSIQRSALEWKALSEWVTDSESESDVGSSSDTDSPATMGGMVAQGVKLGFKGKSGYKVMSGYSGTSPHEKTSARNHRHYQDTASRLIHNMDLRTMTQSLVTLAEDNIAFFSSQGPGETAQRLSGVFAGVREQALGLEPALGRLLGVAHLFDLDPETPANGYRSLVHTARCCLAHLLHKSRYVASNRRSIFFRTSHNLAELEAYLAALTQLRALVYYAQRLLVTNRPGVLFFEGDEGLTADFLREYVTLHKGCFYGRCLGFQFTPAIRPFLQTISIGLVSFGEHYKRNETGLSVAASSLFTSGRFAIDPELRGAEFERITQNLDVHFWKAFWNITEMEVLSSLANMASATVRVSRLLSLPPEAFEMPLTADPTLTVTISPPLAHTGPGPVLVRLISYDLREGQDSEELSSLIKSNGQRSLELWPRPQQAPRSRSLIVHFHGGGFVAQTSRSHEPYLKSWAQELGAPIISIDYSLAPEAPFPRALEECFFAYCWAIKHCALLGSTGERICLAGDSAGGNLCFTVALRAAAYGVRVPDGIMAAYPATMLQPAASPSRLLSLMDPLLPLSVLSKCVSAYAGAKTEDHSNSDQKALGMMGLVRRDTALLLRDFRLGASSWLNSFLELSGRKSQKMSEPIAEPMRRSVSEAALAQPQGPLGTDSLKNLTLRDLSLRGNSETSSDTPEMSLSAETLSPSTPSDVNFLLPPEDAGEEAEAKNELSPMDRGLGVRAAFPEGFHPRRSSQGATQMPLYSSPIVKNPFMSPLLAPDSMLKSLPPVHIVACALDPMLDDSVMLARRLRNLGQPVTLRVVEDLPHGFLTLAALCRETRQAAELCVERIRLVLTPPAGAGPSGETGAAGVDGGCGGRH
experimental-protocol: Human Hormone-Sensitive Lipase (HSL) enzyme inhibition assay (colorimetric, DMPT substrate)
study-conditions: human full length HSL-His6, 2,3-dimercapto-1-propanol tributyrate substrate, 37° C. 20 minutes, absorbance at 405 nm; read-out: HSL hum IC50
measurement-kind: log10 IC50 (log10 of the value in nM)
Use the decimal logarithm of IC50 (nM).

Sample records with log10 IC50:
compound	log10 IC50
O=C1N(c2ccc([C@@H](O)C(F)(F)F)cc2)CC[C@]12CC[C@@](O)(C1CCC1)CC2 [Example 200]	1.30
CCS(=O)(=O)C[C@]1(O)CC[C@]2(CCN(c3ccc(OCC(F)(F)F)cc3)C2=O)CC1 [Example 275]	1.90
COc1cccc(CNC(=O)O[C@H]2CC[C@@]3(CCN(c4ccc(OC(F)(F)F)cc4)C3=O)CC2)c1 [Example 12]	1.78
C[C@]1(O)CC[C@]2(CCN(c3ccc(OC(F)(F)F)cc3)C2=O)CC1 [Example 57]	1.85

Could you share what log10 IC50 was measured for CCCc1ccc(N2CC[C@]3(CC[C@H](O)CC3)C2=O)cc1 [Example 37] , tested on human HSL (Homo sapiens, UniProt Q05469)?
2.32

Observed log10 IC50 on human HSL (Homo sapiens, UniProt Q05469) for O=c1ccccn1C[C@]1(O)CC[C@]2(CCN(c3ccc(OCC(F)(F)F)cc3)C2=O)CC1 [Example 369] , please.
1.30

Entry CC[C@]1(O)CC[C@]2(CCN(c3ccc(OCC(F)(F)F)cc3)C2=O)CC1 [Example 88] , system human HSL (Homo sapiens, UniProt Q05469): what log10 IC50 was measured?
1.62

// map O=C1N(c2ccc(OCC(F)(F)F)cc2)CC[C@]12CC[C@@](O)(COCC1CCO1)CC2 (stereo partly shown) [Example 259] to recorded log10 IC50 (system: human HSL (Homo sapiens, UniProt Q05469))
1.90

Recorded log10 IC50 for CCCOC[C@]1(O)CC[C@]2(CCN(c3ccc(CC)cc3)C2=O)CC1 [Example 226] with human HSL (Homo sapiens, UniProt Q05469), please?
1.30

Recorded log10 IC50 for COC[C@]1(O)CC[C@]2(CCN(c3ccc(C(F)(F)F)cc3)C2=O)CC1 [Example 121] with human HSL (Homo sapiens, UniProt Q05469), please?
2.00

Fill in the recorded log10 IC50 for this compound, with human HSL (Homo sapiens, UniProt Q05469) as test system: C[C@@H](Oc1ccc(N2CC[C@]3(CC[C@](O)(COCC(F)F)CC3)C2=O)cc1)C(F)(F)F [Example 300]
2.48
